pIC50: −log10 of the molar value.
Multi-source literature compilation: pIC50 on PASK (Invitrogen) (Homo sapiens).
metric: pIC50

[
  {
    "record_smiles": "Cc1noc2cc(-c3cc(=O)n4ncc(C(N)=O)c4[nH]3)ccc12",
    "metric": "pIC50",
    "observed_result": "≥ 5.00"
  },
  {
    "record_smiles": "CCc1nc2[nH]c(-c3ccc4[nH]nnc4c3)cc(=O)n2n1",
    "metric": "pIC50",
    "observed_result": "≥ 5.00"
  },
  {
    "record_smiles": "COc1cc2[nH]nnc2cc1-c1cc(=O)n2nc(N)c(-c3ccccn3)c2[nH]1",
    "metric": "pIC50",
    "observed_result": "≥ 5.00"
  },
  {
    "record_smiles": "Cc1cnc(-c2cnn3c(=O)cc(-c4ccc5c(C)noc5c4)[nH]c23)o1",
    "metric": "pIC50",
    "observed_result": "≥ 5.00"
  },
  {
    "record_smiles": "CN(c1nc2cc(C(=O)O)ccc2nc1-c1ccc(F)cc1)[C@H]1CC[C@H](O)CC1",
    "metric": "pIC50",
    "observed_result": "> 5.00"
  },
  {
    "record_smiles": "O=c1cc(-c2ccc(Cl)c(Cl)c2)[nH]c2c(-c3cc[nH]n3)cnn12",
    "metric": "pIC50",
    "observed_result": "≥ 5.00"
  },
  {
    "record_smiles": "CCCc1c(C)nn2c(=O)cc(-c3ccc(OC)cc3)[nH]c12",
    "metric": "pIC50",
    "observed_result": "≥ 5.00"
  },
  {
    "record_smiles": "CC(C)N(C)c1nc2cc(C(=O)O)ccc2nc1-c1ccc2oncc2c1",
    "metric": "pIC50",
    "observed_result": "> 5.00"
  },
  {
    "record_smiles": "O=C(O)c1ccc2c(c1)cc(-c1ccc(F)cc1)n2-c1ccc(F)cc1",
    "metric": "pIC50",
    "observed_result": "≥ 5.00"
  },
  {
    "record_smiles": "CC(C)N(C)c1nc2cc(C(=O)O)ccc2nc1-c1ccc(N)nc1",
    "metric": "pIC50",
    "observed_result": "> 5.00"
  },
  {
    "record_smiles": "O=c1cc(-c2ccc3[nH]nnc3c2)[nH]c2nc(-c3ccccn3)nn12",
    "metric": "pIC50",
    "observed_result": "≥ 5.00"
  },
  {
    "record_smiles": "CC(C)N(C)c1nc2cc(C(=O)O)ccc2nc1-c1ccc2cn[nH]c2c1",
    "metric": "pIC50",
    "observed_result": "> 5.00"
  },
  {
    "record_smiles": "O=C(O)c1ccc2nc(-c3ccc(F)cc3)c(N3CCCc4cc(Cl)ccc43)nc2c1",
    "metric": "pIC50",
    "observed_result": "≥ 5.00"
  },
  {
    "record_smiles": "Cc1cnc(-c2cnn3c(=O)cc(-c4ccc5c(c4)OCO5)[nH]c23)o1",
    "metric": "pIC50",
    "observed_result": "≥ 5.00"
  },
  {
    "record_smiles": "CC(C)N(C)c1nc2cc(C(=O)O)ccc2nc1-c1ccn[nH]1",
    "metric": "pIC50",
    "observed_result": "> 5.00"
  },
  {
    "record_smiles": "O=c1cc(-c2ccc([N+](=O)[O-])cc2)[nH]c2c(-c3ccc(Cl)cc3)c(Cc3ccccc3)nn12",
    "metric": "pIC50",
    "observed_result": "≥ 5.00"
  },
  {
    "record_smiles": "COc1nn2c(=O)cc(-c3ccc4c(c3)OCO4)[nH]c2c1-c1ccccn1",
    "metric": "pIC50",
    "observed_result": "≥ 5.00"
  },
  {
    "record_smiles": "CCn1nccc1-c1cnn2c(=O)cc(-c3ccc(Cl)c(OCC(F)(F)F)c3)[nH]c12",
    "metric": "pIC50",
    "observed_result": "≥ 5.00"
  },
  {
    "record_smiles": "O=c1cc(-c2ccc3c(c2)CCO3)[nH]c2c(-c3cccnc3)cnn12",
    "metric": "pIC50",
    "observed_result": "≥ 5.00"
  },
  {
    "record_smiles": "O=C(O)c1ccc2nc(-c3cc4cc(F)ccc4o3)c(N3CCCC3)nc2c1",
    "metric": "pIC50",
    "observed_result": "> 5.00"
  },
  {
    "record_smiles": "CCc1nn2c(=O)cc(-c3ccc4c(cnn4CC)c3)[nH]c2c1-c1nc(C)no1",
    "metric": "pIC50",
    "observed_result": "≥ 5.00"
  },
  {
    "record_smiles": "CCCc1cnn2c(=O)cc(-c3ccc4c(c3)OCO4)[nH]c12",
    "metric": "pIC50",
    "observed_result": "≥ 5.00"
  },
  {
    "record_smiles": "COc1cc(-c2cc(=O)n3ncc(-c4nccs4)c3[nH]2)ccc1Cl",
    "metric": "pIC50",
    "observed_result": "≥ 5.00"
  },
  {
    "record_smiles": "CCn1ncc2cc(-c3cc(=O)n4nc(C)c(-c5ncco5)c4[nH]3)ccc21",
    "metric": "pIC50",
    "observed_result": "≥ 5.00"
  },
  {
    "record_smiles": "CCCNC(=O)c1c(N)nn2c(=O)cc(-c3ccc4c(c3)OCO4)[nH]c12",
    "metric": "pIC50",
    "observed_result": "≥ 5.00"
  },
  {
    "record_smiles": "Cc1ccc(-c2cc(=O)n3nc(C)c(-c4ccccc4)c3[nH]2)cc1",
    "metric": "pIC50",
    "observed_result": "≤ 5.00"
  },
  {
    "record_smiles": "CCc1coc(-c2cnn3c(=O)cc(-c4ccc5c(cnn5CC)c4)[nH]c23)n1",
    "metric": "pIC50",
    "observed_result": "≥ 5.00"
  },
  {
    "record_smiles": "Nc1nn2c(=O)cc(-c3ccc4[nH]nnc4c3)[nH]c2c1-c1ccccc1",
    "metric": "pIC50",
    "observed_result": "≥ 5.00"
  },
  {
    "record_smiles": "CC(=O)Nc1nn2c(=O)cc(-c3ccc4c(c3)OCO4)[nH]c2c1-c1ccccn1",
    "metric": "pIC50",
    "observed_result": "≥ 5.00"
  },
  {
    "record_smiles": "Nc1nn2c(=O)cc(-c3ccc4[nH]nnc4c3)[nH]c2c1-c1ccccn1",
    "metric": "pIC50",
    "observed_result": "≥ 5.00"
  },
  {
    "record_smiles": "CCCc1cc(=O)n2nc(C)c(-c3ccc(Cl)cc3)c2[nH]1",
    "metric": "pIC50",
    "observed_result": "≤ 5.00"
  },
  {
    "record_smiles": "COc1ccc(-c2c(C)nn3c(=O)cc(-c4ccc5c(c4)OCCO5)[nH]c23)cc1",
    "metric": "pIC50",
    "observed_result": "≥ 5.00"
  },
  {
    "record_smiles": "Cc1cc2cc(-c3nc4ccc(C(=O)O)cc4nc3N(C)C3CC3)ccc2[nH]1",
    "metric": "pIC50",
    "observed_result": "> 5.00"
  },
  {
    "record_smiles": "CCn1nc(C)c2cc(-c3cc(=O)n4ncc(-c5ncc(C)o5)c4[nH]3)ccc21",
    "metric": "pIC50",
    "observed_result": "≥ 5.00"
  },
  {
    "record_smiles": "N#Cc1c(O)nn2c(=O)cc(-c3ccc(Cl)cc3)[nH]c12",
    "metric": "pIC50",
    "observed_result": "≥ 5.00"
  }
]

###

Multi-source literature compilation: IC50 on PASK (Invitrogen) (Homo sapiens, UniProt Q96RG2).
metric: IC50

[
  {
    "record_smiles": "O=C(O)c1ccc2nc(-c3ccc4c(c3)OC(F)(F)O4)c(N3CCCCCC3)nc2c1",
    "observed_result": "< 10 µM"
  },
  {
    "record_smiles": "Cc1nn2c(=O)cc(-c3ccc4[nH]nnc4c3)[nH]c2c1-c1ccccn1",
    "observed_result": "≤ 10 µM"
  },
  {
    "record_smiles": "CCCNC(=O)c1c(O)nn2c(=O)cc(-c3ccc4[nH]nnc4c3)[nH]c12",
    "observed_result": "≤ 10 µM"
  },
  {
    "record_smiles": "O=C(O)c1ccc2nc(-c3cc4ccccc4o3)c(N3CCCc4ccccc43)nc2c1",
    "observed_result": "≤ 10 µM"
  },
  {
    "record_smiles": "Nc1nn2c(=O)cc(-c3cccc(F)c3)[nH]c2c1-c1ccccn1",
    "observed_result": "≤ 10 µM"
  },
  {
    "record_smiles": "C[C@H]1CCCN1c1nc2cc(C(=O)O)ccc2nc1-c1nc2ccccc2s1",
    "observed_result": "< 10 µM"
  },
  {
    "record_smiles": "C[C@@H](c1ccccc1)N(C)c1nc2cc(C(=O)O)ccc2nc1-c1ccc(F)cc1",
    "observed_result": "< 10 µM"
  },
  {
    "record_smiles": "O=c1cc(-c2ccc3c(c2)CCO3)[nH]c2c(-c3ccccc3)cnn12",
    "observed_result": "≤ 10 µM"
  },
  {
    "record_smiles": "O=c1cc(-c2ccc3[nH]ncc3c2)[nH]c2c(-c3ncco3)cnn12",
    "observed_result": "≤ 10 µM"
  },
  {
    "record_smiles": "CC(C)N(C)c1nc2cc(C(=O)O)ccc2nc1-c1ccnc(F)c1",
    "observed_result": "< 10 µM"
  },
  {
    "record_smiles": "O=c1cc(-c2ccc3c(c2)CCO3)[nH]c2c(-c3cccnc3)c(O)nn12",
    "observed_result": "≤ 10 µM"
  },
  {
    "record_smiles": "COc1ccc(Cc2nn3c(=O)cc(-c4ccccc4)[nH]c3c2-c2ccccc2)cc1",
    "observed_result": "≥ 10 µM"
  },
  {
    "record_smiles": "CC(C)N(C)c1nc2cc(-c3nnn[nH]3)ccc2nc1-c1cc2cc(F)ccc2o1",
    "observed_result": "≤ 10 µM"
  },
  {
    "record_smiles": "O=c1cc(-c2ccc3c(c2)OCO3)[nH]c2c(-c3cccnc3)c(O)nn12",
    "observed_result": "≤ 10 µM"
  },
  {
    "record_smiles": "O=c1cc(-c2cccc(F)c2)[nH]c2c(-c3ccccn3)cnn12",
    "observed_result": "≤ 10 µM"
  },
  {
    "record_smiles": "CCn1ncc2cc(-c3cc(=O)n4nc(C)c(-c5nc(C)no5)c4[nH]3)ccc21",
    "observed_result": "≤ 10 µM"
  },
  {
    "record_smiles": "CCn1nccc1-c1cnn2c(=O)cc(-c3ccc(Cl)cc3)[nH]c12",
    "observed_result": "≤ 10 µM"
  },
  {
    "record_smiles": "Cc1nn2c(=O)cc(-c3ccc4[nH]ccc4c3)[nH]c2c1-c1ccccc1",
    "observed_result": "≤ 10 µM"
  },
  {
    "record_smiles": "Cc1nn2c(=O)cc(-c3ccc4c(c3)OCO4)[nH]c2c1Cc1ccccn1",
    "observed_result": "≤ 10 µM"
  },
  {
    "record_smiles": "COCc1cc(=O)n2nc(Cc3ccccc3)c(-c3ccc(OC)cc3)c2[nH]1",
    "observed_result": "≥ 10 µM"
  },
  {
    "record_smiles": "Cc1nn2c(=O)cc(-c3ccc(O)cc3)[nH]c2c1-c1ccccc1",
    "observed_result": "≤ 10 µM"
  },
  {
    "record_smiles": "O=c1cc(-c2ccc3occc3c2)[nH]c2c(-c3nccs3)cnn12",
    "observed_result": "≤ 10 µM"
  },
  {
    "record_smiles": "O=C(O)/C=C/c1cnc(-c2ccc(F)cc2)c(-c2ccc(F)cc2)n1",
    "observed_result": "≤ 10 µM"
  },
  {
    "record_smiles": "Cc1nn2c(=O)cc(-c3ccccc3)[nH]c2c1-c1ccc(F)cc1",
    "observed_result": "≥ 10 µM"
  },
  {
    "record_smiles": "Nc1nn2c(=O)cc(-c3ccc4[nH]nnc4c3)[nH]c2c1Cc1ccccc1",
    "observed_result": "≤ 10 µM"
  },
  {
    "record_smiles": "Cc1nn2c(=O)cc(-c3ccccc3)[nH]c2c1-c1ccc(Cl)cc1",
    "observed_result": "≤ 10 µM"
  },
  {
    "record_smiles": "CCn1ncc2cc(-c3cc(=O)n4ncc(-c5nc6ccccc6o5)c4[nH]3)ccc21",
    "observed_result": "≤ 10 µM"
  },
  {
    "record_smiles": "O=C(O)c1ccc2nc(-c3ccc(F)cc3)c(N3CCCC3)nc2c1",
    "observed_result": "< 10 µM"
  },
  {
    "record_smiles": "CN(c1nc2cc(C(=O)O)ccc2nc1-c1ccc(F)cc1)C1CCCC1",
    "observed_result": "< 10 µM"
  },
  {
    "record_smiles": "O=C(O)c1ccc2nc(-c3ccc(F)cc3)c(N3CCC[C@@H]3C(F)(F)F)nc2c1",
    "observed_result": "< 10 µM"
  },
  {
    "record_smiles": "O=c1cc(-c2cccnc2)[nH]c2c(-c3ccc(F)cc3)cnn12",
    "observed_result": "≤ 10 µM"
  },
  {
    "record_smiles": "Cc1coc(-c2cnn3c(=O)cc(-c4ccc5[nH]nnc5c4)[nH]c23)n1",
    "observed_result": "≤ 10 µM"
  },
  {
    "record_smiles": "CC(=O)N[C@H]1CC[C@H](N(C)c2nc3cc(C(=O)O)ccc3nc2-c2ccc(F)cc2)CC1",
    "observed_result": "< 10 µM"
  },
  {
    "record_smiles": "O=c1cc(-c2ccc3c(c2)OC(F)(F)O3)[nH]c2c(-c3ccccn3)cnn12",
    "observed_result": "≤ 10 µM"
  },
  {
    "record_smiles": "O=c1cc(-c2ccccc2)[nH]c2c(-c3ccc(Cl)cc3)c(Cc3ccccc3)nn12",
    "observed_result": "≥ 10 µM"
  }
]
